Each recorded value in this set is attributed to PubChem BioAssay (NCI).

Each item that follows carries a reported TGI.
System: U251 CNS
Assay: NCI tumour cell line growth inhibition, 48 h
measured_endpoint: TGI

O=C(CN1CCN(Cc2ccccc2)CC1)c1ccc2[nH]c(=O)oc2c1: > 100 µM
COc1ccc(-c2cc(-c3cc(Cl)ccc3Cl)nc3n[nH]c(N)c23)cc1: > 100 µM
CC(=O)Nc1ccc(Nc2cc(=O)[nH]c(=O)[nH]2)cc1: > 100 µM
CC12CCC3C(CCC4Cc5[nH]c6ccccc6c5CC43C)C1CCC2O (stereo not given): > 48 µM
Cc1cc(N(CCC#N)CCC#N)ccc1/C=C1N=C(/C=C\c2ccccc2)OC\1=O: > 100 µM
